Overview of reported Activity across a group of compounds:
- Tested on: Rattus norvegicus
- Procedure text: Insulin secretagogue activity in fasted hyperglycemic Wistar rat assessed as insulin level at 10 mg/kg, po measured 60 mins post dose by ELISA method (reference value: 0.59 +/- 0.004 ng/mL)
- Format: functional

Smiles record: O=S(=O)(NC(=S)Nc1ccccc1)c1ccc(CCNS(=O)(=O)c2cccc3cccnc23)cc1
Target system: Rattus norvegicus
Activity / ng/mL: 0.6
//
Smiles record: O=S(=O)(NC(=S)Nc1ccccc1)c1ccc(CCNS(=O)(=O)c2cccs2)cc1
Target system: Rattus norvegicus
Activity / ng/mL: 1.46
//
Smiles record: O=S(=O)(NCCc1ccc(S(=O)(=O)NC(=S)Nc2ccccc2)cc1)c1ccccc1
Target system: Rattus norvegicus
Activity / ng/mL: 0.78
